# reported TGI; entries follow
System: T-47D breast
Assay: NCI tumour cell line growth inhibition, 48 h

Example results:
{"compound": "CC1=Nc2ccccc2/C1=C\\c1c(C)[nH]c2ccccc12", "TGI": "29.4 µM"}
{"compound": "CC(C)=CCNc1nc(Cl)nc2nc[nH]c12", "TGI": "> 100 µM"}

O=C(c1ccccc1)c1c(NCC(O)CN2CCOCC2)n(Cc2ccccc2)c(=O)n(Cc2ccccc2)c1=O (stereo not drawn) tested on T-47D breast gave TGI: > 43.3 µM

----------
System: OVCAR-3 ovarian
Assay: NCI tumour cell line growth inhibition, 48 h
# reported TGI; entries follow

{"molecule": "O=C(c1cccs1)N1CCN(C(=O)c2cccs2)C1=S", "TGI": "10.7 µM"}
{"molecule": "CC(C)(C)C(=CS(=O)/N=C/c1ccccc1)C(C)(C)C (centres undefined)", "TGI": "> 100 µM"}
{"molecule": "CC1CCSC(N(C(=O)N(C)c2ccccc2)c2ccccc2)=N1 (centres undefined)", "TGI": "> 100 µM"}

We now examine a further molecule.
The molecule NNC(=O)C1(NC(=O)c2ccccc2)C(c2ccccc2)C(c2ccccc2)=NN1c1ccccc1 (centres undefined) showed TGI equal to > 100 µM

Cited source: PubChem BioAssay (NCI)
